Some binders, each annotated with its measured koff.
Molecular target: human PD-L1/His fusion protein (human, UniProt Q9NZQ7 19-239)
Sequence (Q9NZQ7 19-239 limits assumed): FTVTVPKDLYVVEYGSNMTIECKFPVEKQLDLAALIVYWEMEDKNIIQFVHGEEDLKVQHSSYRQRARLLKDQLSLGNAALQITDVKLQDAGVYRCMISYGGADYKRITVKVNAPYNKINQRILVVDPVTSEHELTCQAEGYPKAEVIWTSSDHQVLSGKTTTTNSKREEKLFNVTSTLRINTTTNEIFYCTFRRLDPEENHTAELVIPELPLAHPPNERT
Assay: BLI Octet RED96, antibody on AHC sensor, single conc. PD-L1/His; test group 4

binder	koff [s⁻¹]
EM0005-mAb87c (antibody, human IgG1, kappa, V domains shown, Chimeric full-length IgG1; also called EM0005-87c) VH: EVQLQQSGPELVKPGASVKISCKASGYSFTDYYINWVKQSPEKSLEWIGETIPNTGGTTYNQKFKAKATLTVDKSSSTAYMQLKSLTSEDSAVYYCARYQSGSPFAYWGQGTPVTVSS VL: DIVMTQSQKFMSTTVGDRVSITCKASQNVGTAVAWYQQKPGQSPKLLIYSASNRYTGVPDRFTGSGSGTDFTLTISNMQSEDLADYFCQQHYSTPYTFGGGTKLEIKR	0.000897
HuEM0005-87-22 (antibody, human IgG1, V domains shown) VH: EVQLVQSGAEVKKPGASVKVSCKASGYTFTDYYINWVRQAPGQGLEWMGETIPNTGGTTYNQKFKARVTLTVDTSTSTVYMELSSLRSEDTAVYYCARYQSGSPFAYWGQGTTVTVSS VL: DIVMTQSPATLSVSPGERATLSCKASQNVGTAVAWYQQKPGQAPRLLIYSASNRYTGVPDRFTGSGSGTDFTLTISSLQSEDFAVYYCQQHYSTPYTFGGGTKLEIK	0.000738
EM0005-mAb90c (antibody, human IgG1, kappa, V domains shown, Chimeric full-length IgG1; also called EM0005-90c) VH: QVQLKQSGAELVRPGSSVKMSCKTSGYTFTSHSINWVKQRPGQGLEWIGYMYIGNGYTEYNEKFKGKATLTSDTSSTTAYMQLSSLTSEDSAIYFCAKITPVVAPYVMDYWGQGTSVTVSS VL: DIVMTQTHKFMSTSVGDRVSITCKASQDVGTAVAWYQQKPGQSPKLLIYWASTRHTGVPDRFTGSGSGTDFTLTISNVQSEDLADYFCQQYSSYPYTFGGGTKLELKR	0.00225
HuEM0005-87-24 (antibody, human IgG1, V domains shown) VH: EVQLVQSGAEVKKPGASVKVSCKASGYSFTDYYINWVRQAPGQGLEWIGETIPNTGGTTYNQKFKAKATLTVDKSTSTAYMELSSLRSEDTAVYYCARYQSGSPFAYWGQGTTVTVSS VL: DIVMTQSPATLSVSPGERATLSCKASQNVGTAVAWYQQKPGQAPRLLIYSASNRYTGVPDRFTGSGSGTDFTLTISSLQSEDFAVYYCQQHYSTPYTFGGGTKLEIK	0.00101
HuEM0005-87-19 (antibody, human IgG1, V domains shown) VH: EVQLVQSGAEVKKPGASVKVSCKASGYSFTDYYINWVRQAPGQGLEWIGETIPNTGGTTYNQKFKAKATLTVDKSTSTAYMELSSLRSEDTAVYYCARYQSGSPFAYWGQGTTVTVSS VL: EIVMTQSPATLSVSPGERATLSCKASQNVGTAVAWYQQKPGQAPRLLIYSASNRYTGVPDRFTGSGSGTEFTLTISSLQSEDFAVYYCQQHYSTPYTFGGGTKLEIK	0.000782
HuEM0005-90-20 (antibody, human IgG1, V domains shown) VH: EVQLVQSGAEVKKPGASVKVSCKTSGYTFTSHSINWVRQATGQGLEWIGYMYIGNGYTEYNEKFKGRATLTSNTSISTAYMELSSLRSEDTAVYYCAKITPVVAPYVMDYWGQGTSVTVSS VL: DIVMTQSPSFLSASVGDRVTITCKASQDVGTAVAWYQQKPGKAPKLLIYWASTRHTGVPDRFTGSGSGTDFTLTISSLQPEDFATYYCQQYSSYPYTFGQGTKLEIK	0.00249
HuEM0005-87-20 (antibody, human IgG1, V domains shown) VH: EVQLVQSGAEVKKPGASVKVSCKASGYSFTDYYINWVKQAPGQGLEWIGETIPNTGGTTYNQKFKAKATLTRDKSTSTAYMELKSLRSEDTAVYYCARYQSGSPFAYWGQGTTVTVSS VL: EIVMTQSPATLSVSPGERATLSCKASQNVGTAVAWYQQKPGQAPRLLIYSASNRYTGVPDRFTGSGSGTEFTLTISSLQSEDFAVYYCQQHYSTPYTFGGGTKLEIK	0.000801
